Data origin: PubChem BioAssay (NCI)

test system: NCI/ADR-RES ovarian; experiment: NCI-60 one-dose screen, 48 h; conditions: 10 µM unless noted
The panel holds about 83,000 compounds, 20% with a hit somewhere; the sample as a whole holds those more often. Active and inactive are the calls of the source. Rule for the calls: active = growth percent below 10; inactive = the rest.
Labels: active, inactive

Compound | Target or test system | Group
CN1CCN(CCCOc2ccc3nc(Nc4ccc(Cl)c(C(F)(F)F)c4)ccc3c2)CC1 | NCI/ADR-RES ovarian | inactive
COc1cc2c(cc1OCCCCCn1c3ccccc3c3ccccc31)N=C[C@@H]1CCCN1C2=O | NCI/ADR-RES ovarian | active
Cn1ccc(=O)c(S(N)(=O)=O)c1 | NCI/ADR-RES ovarian | inactive
COc1cc2c(c(OC)c1OC)-c1ccc(N)c(=O)cc1[C@@H](NC(C)=O)CC2 | NCI/ADR-RES ovarian | inactive
COc1ccc2cc(-c3ccc(-c4ccc(C(=N)N)cc4)s3)ccc2c1 | NCI/ADR-RES ovarian | inactive
O=C(O)c1cn(C2CC2)c2cc(N3CCN(C(=O)/C=C/c4ccc(Cl)cc4)CC3)c(F)cc2c1=O | NCI/ADR-RES ovarian | inactive
COc1ccc(-c2nc(/C=N/Nc3cc(C)nc4ccc(Cl)cc34)c(C)o2)cc1 | NCI/ADR-RES ovarian | active
Cc1ccc(S(=O)(=O)c2nc(-c3ccccc3)oc2S(C)(=O)=O)cc1 | NCI/ADR-RES ovarian | inactive
COC(=O)c1cc2cc(-c3ccc(OC)cc3)cnc2[nH]1 | NCI/ADR-RES ovarian | active
Cc1c(C(=N)C(C#N)C#N)c(=N)oc2c1ccc1ccccc12 | NCI/ADR-RES ovarian | inactive
COc1ccc(/C=C/c2c(C(C)=O)c(C)nc3ccccc23)cc1 | NCI/ADR-RES ovarian | inactive
C=C[C@@H]1C[C@H](O)Cc2ccccc2N1 | NCI/ADR-RES ovarian | inactive
Cc1ccc(CSC(=N)N)cc1C | NCI/ADR-RES ovarian | inactive
Cc1nc2cncc(C#Cc3cncc(C(=O)Nc4ccc(CN5CCN(C)CC5)c(C(F)(F)F)c4)c3)c2nc1C | NCI/ADR-RES ovarian | inactive
COc1ccc(-c2cnoc2-c2ccc(OC)cc2O)cc1 | NCI/ADR-RES ovarian | active
O=C1/C(=C/c2ccc(Cl)cc2)CN(C(=O)CCN2CCC(=NO)CC2)C/C1=C\c1ccc(Cl)cc1 | NCI/ADR-RES ovarian | active
CN(C)CCCC(C#N)c1ccccc1 (configuration not stated) | NCI/ADR-RES ovarian | inactive
COc1ccc(-n2c(-c3ccccc3)c(-c3ccccc3)c3c(SCC(=O)N/N=C/c4ccc(Cl)cc4)ncnc32)cc1 | NCI/ADR-RES ovarian | inactive
COc1ccc2[nH]c(=O)c(/C=N/Nc3nc(-c4ccccc4)cs3)c(O)c2c1 | NCI/ADR-RES ovarian | inactive
COc1ccc(-c2ccc(C)n2-c2ccc(-c3nc4cc(Cl)ccc4s3)cc2)cc1 | NCI/ADR-RES ovarian | inactive
Nc1cccc(Cl)c1N | NCI/ADR-RES ovarian | inactive
COc1ccc2c(c1)cn1c3ccc(OC)cc3[nH]c(=O)c21 | NCI/ADR-RES ovarian | active

====

test system: HOP-92 NSCLC; assay: NCI-60 one-dose screen, 48 h; settings: 10 µM unless noted
About 83,000 compounds went through this panel and 20% of them were active in at least one assay; those are over-represented in the sample as a whole. The source made the active and inactive calls. How the source made its calls: active means growth percent below 10; inactive means the rest.
Outcome codes: Yes = active, No = inactive

Compound | Group
CC(C)(C)n1cc(-c2ccnc(NCCCNS(=O)(=O)c3ccc(Br)cc3)c2)c(-c2cccc(O)c2)n1 | No
Cc1ccc(-c2cc3nc(C(Cl)Cl)nc(-c4cccnc4)n3n2)cc1 | Yes
C=C[C@@H]1C[C@@H]2Cc3cc(F)ccc3N1O2 | No
Cc1cc(C)n(-c2nnc3n2N=C(c2ccc(-c4ccccc4)cc2)CS3)n1 | Yes
COC(=O)c1cc2cc(-c3ccc(OC)cc3)cnc2[nH]1 | Yes
O=S(=O)(NCCNc1nccc(-c2c(-c3ccc(O)cc3)nc3sccn23)n1)c1cccc2ccccc12 | No
N=C(N)c1ccc(-c2ccc(-c3ccc4ccccc4c3)s2)cc1 | No
COc1ccc(CCNC2=CC(=O)CCC2)cc1OC | No
O=C(Oc1ccccc1[N+](=O)[O-])C1CCCN1C(=O)OCc1ccccc1 (stereo unspecified) | No
C=CCn1cc(-c2nc3ccccc3s2)c2cc(-c3ccc4c5c(cccc35)C(=O)N(CCN3CCNCC3)C4=O)ccc21 | No
Nc1nc(Nc2cc(Cl)cc(Cl)c2)nn1S(=O)(=O)c1ccc2ccccc2c1 | Yes
C=C1CCC2C(C)(CO)C(O)CCC2(C)C1CC(NCc1ccccc1)C1=CCOC1=O (stereo unspecified) | No
NC(=N\N=C/c1ccc(O)cc1)/C(N)=N\N=C/c1ccc(O)cc1 | No
CCCCOc1ccc(/C=C2/SC(N3CCCC3)=NC2=O)cc1 | No
Fc1ccc(CNCCNc2ncnc3c2cnn3-c2ccccc2)cc1 | No
C=C(C)[C@@H]1C[C@@H]2Cc3cc(F)ccc3N1O2 | No
O=C(Nc1ccc2c(c1)OCO2)C(=O)c1c[nH]c2cc(F)ccc12 | No
COc1ccc(Nc2[nH]n3c(=O)cc(-c4ccccc4)nc3c2C(=O)Nc2ccc(C)cc2)c(OC)c1 | No
COc1cc(C(=O)/C=C/c2c(C)n([O-])c3ccc(C(F)(F)F)cc3[n+]2=O)cc(OC)c1OC | No
C=C[C@@H]1C[C@H](O)Cc2c(C)cc(C)cc2N1 | No
C=C1CCC2C(C)(CO)C(O)CCC2(C)C1C/C=C1/C(=O)OCC1Oc1ccccc1C (stereo unspecified) | No

====

test system: SNB-19 CNS; assay: NCI-60 one-dose screen, 48 h (100 = growth as untreated, 0 = no growth, -100 = all killed); details: 10 µM unless noted
The panel holds about 83,000 compounds, 20% with a hit somewhere; the sample as a whole holds those more often.
Binning of growth into classes: zone 1 = under 70%, zone 2 = from 70% up to 90%, zone 3 = 90% and over

Molecule | Target or test system | Group
CC(=O)Nc1scc[n+]1Cc1ccccc1 | SNB-19 CNS | zone 3
Cc1ccc(N2CCN(C(C)C(N)=O)CC2)cc1 (stereo unspecified) | SNB-19 CNS | zone 3
COc1ccc(S(=O)(=O)NCCCNc2nccc(-c3c(-c4cccc([N+](=O)[O-])c4)nc4sccn34)n2)cc1 | SNB-19 CNS | zone 2
O=C(O)Cc1cccc(=O)c(O)c1C(=O)O | SNB-19 CNS | zone 3
N=c1ccc2nc3ccc(N)cc3sc-2c1 | SNB-19 CNS | zone 1
Fc1ccccc1-c1nc(-c2nc3cc(Cl)c(Cl)cc3[nH]2)c2ccccn12 | SNB-19 CNS | zone 3
CCN1CCN(c2nc(NNC(=O)c3ccccc3)nc(N3CCN(C(c4ccccc4)c4ccccc4)CC3)n2)CC1 | SNB-19 CNS | zone 2
COc1cc(C2C3=C(COC3=O)Nc3cc4c(cc32)CCC4)cc2c1OCO2 (stereo unspecified) | SNB-19 CNS | zone 1
NC1=C(/C(N)=N/O)C(c2ccccc2)c2ccc3ccccc3c2O1 (stereo unspecified) | SNB-19 CNS | zone 1
CCN(CC)CCOC(=O)C(c1ccccc1)(c1ccccc1)C(C)C | SNB-19 CNS | zone 3
COc1cc(-c2nn(-c3cccc(NC(=O)c4ccc(Cl)c(C(F)(F)F)c4)c3)cc2-c2ccncc2)ccc1Cl | SNB-19 CNS | zone 1
COc1cc2c(=O)n(C3CCCCCC3)c3c4cc[nH]c4ncc3c2cc1OC | SNB-19 CNS | zone 2
COc1ccc(-c2nc(/C=N/Nc3cc(C)nc4ccc(Cl)cc34)c(C)o2)cc1 | SNB-19 CNS | zone 1
COc1ccc(-c2cnoc2-c2ccc(OC)cc2O)cc1 | SNB-19 CNS | zone 1
Cc1ccc(-c2nc(C#N)c(S(=O)(=O)n3nc(-c4ccccc4)cc3N)o2)cc1 | SNB-19 CNS | zone 3

====

tested on: MALME-3M melanoma; experiment: NCI-60 one-dose screen, 48 h (100 = growth as untreated, 0 = no growth, -100 = all killed); settings: 10 µM unless noted
About 83,000 compounds went through this panel and 20% of them were active in at least one assay; those are over-represented in the sample as a whole.

Compound | Target or test system | Result units | growth
COc1cccc(CC(C)=C(c2ccc(OCCN(C)C)cc2)c2ccc(OCCN(C)C)cc2)c1 | MALME-3M melanoma | % | -93
C=CCn1c2ccccc2c2c3c(c4c5ccccc5n(CC=C)c4c21)C(=O)N(O)C3=O | MALME-3M melanoma | % | 96.1
CCCCCCCC/C=C/CCCCCCCC1=NC(C)(C)CN1C(C)(C)CO | MALME-3M melanoma | % | -12.9
CC1=NC2=CC=CC3=NC(C(Cl)(Cl)Cl)=NC(=N1)N23 | MALME-3M melanoma | % | 33.6
CC(C)CSc1nc(NN)c(C#N)c(-c2ccc(F)cc2)n1 | MALME-3M melanoma | % | 95.5
Cc1ccc2nc(-c3cc4c([nH]c5ccccc54)c(-c4ccc(F)c(F)c4)n3)[nH]c2c1 | MALME-3M melanoma | % | 120
O=c1c2sc3ncccc3c2nnn1-c1ccccc1 | MALME-3M melanoma | % | 105
C=C1CCC2C3(C)COC(c4ccc(N(C)C)cc4)OC3CCC2(C)C1C/C=C1/C(=O)OCC1O (stereo not given) | MALME-3M melanoma | % | 105
Nc1nc(Nc2cc(Cl)cc(Cl)c2)nn1S(=O)(=O)c1ccc2ccccc2c1 | MALME-3M melanoma | % | 63
COc1ccc(-c2nc(/C=N/Nc3cc(C)nc4ccc(Cl)cc34)c(C)o2)cc1 | MALME-3M melanoma | % | -90.9
